Numbers sourced from ChEMBL document CHEMBL4665801.

Property: pIC50; scope: individual compounds
tested on: MIA PaCa-2; assay: Cytotoxicity against human MIA PaCa-2 cells assessed as reduction in cell viability after 48 hrs by CellTiter-Glo assay; type: functional, cell-based; conditions: MIA PaCa-2, 48 h
The value called pIC50 is obtained by taking minus log10 of the concentration in mol/L.

Below, 3 compounds whose answers are already recorded.
>>> result("CCCCC#Cc1cc(-c2nn(-c3nc(C(=O)O)cs3)c(CC3CC3)c2Cc2ccc(S(N)(=O)=O)c(F)c2)ccc1F")
6.07
>>> result("Cc1ncc(C#Cc2cccc(-c3nn(-c4nc(C(=O)O)cs4)c(CC4CC4)c3Cc3ccc(S(N)(=O)=O)c(F)c3)c2)s1")
6.19
>>> result("Cc1cc(C)c(C#Cc2cccc(-c3nn(-c4nc(C(=O)O)cs4)c(CC4CC4)c3Cc3ccc(S(N)(=O)=O)c(F)c3)c2)s1")
6.27

Here is the next item to consider.
input: Respond only with pIC50 recorded for `Cc1cnc(C#Cc2cc(-c3nn(-c4nc(C(=O)O)cs4)c(CC4CC4)c3Cc3ccc(S(N)(=O)=O)c(F)c3)ccc2F)s1`
output: 6.04
